Assay: Cell toxicity (CC50) in HRV assay
Conditions: human, HRV CC50
I'd be grateful if you could share measured CC50 for these entries.
Reply numerically in µM, unit not repeated.

Input line: So what's the measured CC50 for this one? COc1ccc(-c2sc(NC(C)(C)C3CCOCC3)nc2C)cc1S(=O)(=O)Nc1c(C)cc(F)cc1F
Output line: 87.4

Input line: So what's the measured CC50 for this one? COc1ccc(-c2oc(NC(C)(C)c3ccccc3)nc2C)cc1S(=O)(=O)Nc1cccnc1C
Output line: 30.5

Input line: So what's the measured CC50 for this one? COc1ccc(-c2sc(NC(C)(C)C3CCOCC3)nc2C)cc1S(=O)(=O)NC1CCN(S(C)(=O)=O)CC1
Output line: 102

Input line: So what's the measured CC50 for this one? COc1ccc(-c2sc(NC(C)(C)c3ncccn3)nc2C)cc1S(=O)(=O)Nc1c(C)cccc1F
Output line: 19.4

Input line: So what's the measured CC50 for this one? COc1ccc(-c2sc(NC(C)(C)C3CCOCC3)nc2C)cc1S(=O)(=O)Nc1nccn1C
Output line: 98.7

---

Experiment: Cell toxicity (CC50) in EV71 assay
Details: EV71 CC50
reported_endpoint: CC50 (µM)
Reply numerically in µM, unit not repeated.

Input line: So what's the measured CC50 for this one? COc1ccc(-c2sc(NC(C)(C)C3CCOCC3)nc2C)cc1S(=O)(=O)NC1CCN(C(=O)OC(C)(C)C)CC1
Output line: 69.3

Input line: So what's the measured CC50 for this one? COc1ccc(-c2sc(NC(C)(C)C3CCOCC3)nc2C)cc1S(=O)(=O)Nc1c(C)cccc1F
Output line: 100

Input line: So what's the measured CC50 for this one? COc1ccc(-c2sc(NC(C)(C)C3CCNCC3)nc2C)cc1S(=O)(=O)Nc1ccc(F)cc1Cl
Output line: 3.07

Input line: So what's the measured CC50 for this one? COc1ccc(-c2sc(NC(C)(C)c3ccccc3)nc2C)cc1S(=O)(=O)NC1CCNCC1
Output line: 0.776

Input line: So what's the measured CC50 for this one? COc1ccc(-c2sc(NC(C)(C)C3CCOCC3)nc2C)cc1S(=O)(=O)Nc1cncnc1C
Output line: 100

Input line: So what's the measured CC50 for this one? COc1ccc(-c2sc(NC(C)(C)c3ccccc3)nc2C)cc1S(=O)(=O)NC1CCN(S(C)(=O)=O)CC1
Output line: 96.1

Input line: So what's the measured CC50 for this one? COc1ccc(-c2sc(NC(C)(C)c3ccncc3)nc2C)cc1S(=O)(=O)Nc1ccncc1C
Output line: 29.5

Input line: So what's the measured CC50 for this one? COc1ccc(-c2sc(NC(C)(C)C3CCOCC3)nc2C)cc1S(=O)(=O)Nc1ccc(NC(C)=O)cc1
Output line: 78.1

Input line: So what's the measured CC50 for this one? COc1ccc(-c2sc(N[C@@H](C)c3ccccc3)nc2C)cc1S(=O)(=O)Nc1c(C)cccc1F
Output line: 95

Input line: So what's the measured CC50 for this one? COc1ccc(-c2sc(NC(C)(C)C3CCOCC3)nc2C)cc1S(=O)(=O)Nc1c(F)cccc1CO
Output line: 16.5

Input line: So what's the measured CC50 for this one? COc1ccc(-c2sc(NC(C)(C)c3ccccc3)nc2C)cc1S(=O)(=O)NC1CCN(C(C)=O)CC1
Output line: 103

Input line: So what's the measured CC50 for this one? COc1ccc(-c2sc(NC(C)(C)C3CCOCC3)nc2C)cc1S(=O)(=O)NC1CCC(O)CC1 (stereo not drawn)
Output line: 47.2

Input line: So what's the measured CC50 for this one? COc1ccc(-c2sc(NC(C)(C)C3CCOCC3)nc2C)cc1S(=O)(=O)Nc1cccc2[nH]cc(Br)c12
Output line: 6.23

Input line: So what's the measured CC50 for this one? COc1ccc(-c2sc(NC(C)(C)C3CCOCC3)nc2C)cc1S(=O)(=O)Nc1ccc(F)cc1C
Output line: 91.9

Input line: So what's the measured CC50 for this one? COc1ccc(-c2sc(NC(C)(C)C3CCOCC3)nc2C)cc1S(=O)(=O)Nc1ccncc1C
Output line: 38.1

Data origin: patent US20250326725A1
